Target: HLA DQ molecule DQB1*0502 (human)
Assay: inhibition of radiolabeled peptide binding to purified HLA class II
Here the recorded pIC50 is given for each entry.
pIC50 here is simply -log10 of the concentration when that concentration is written in mol/L.

- binder: "RYANPIAFFRKEPLK [Lol p 11 peptide, position 111, RYANPIAFFRKEPLK (Peptide ID 3324.1138)]"
  numeric readout: 6.10
- binder: "DSYKFIPTLVAAVKQ [Lol p 5 1 peptide, position 236, DSYKFIPTLVAAVKQ (Peptide ID 3324.1165)]"
  numeric readout: 4.30
- binder: "SDAKTLVLNIKYTRP [Lol p 3 peptide, position 11, SDAKTLVLNIKYTRP (Peptide ID 3324.1142)]"
  numeric readout: 4.30

Turning to the following binder.
Can you share its pIC50? I mean this binder: PAAAYATATPAAATA [Lol p 5 1 peptide, position 306, PAAAYATATPAAATA (Peptide ID 3324.1184)]
5.13
